B1: Ankyrin-2, residues 3571 to 3650; numbered along this chain, Q01484 (parent)
chain: ERLAYIADHLGFSWTELARELDFTEEQIHQIRIENPNSLQDQSHALLKYWLERDGKHATDTNLVECLTKINRMDIVHLME

variants of: B1; assay: abundance fitness (aPCA) (normalised: wild type 0, dead -1); higher = more abundant; growth selection in yeast, the domain comes from the species named; details: Homo sapiens
measured-quantity: abundance fitness
Answers are plain numbers.

Solved entries:
>  <mutation-id>
W14F

>  <abundance fitness>
-0.199

$$$$
>  <mutation-id>
E25H

>  <abundance fitness>
-0.072

$$$$
>  <mutation-id>
D41S

>  <abundance fitness>
-0.005

$$$$
>  <mutation-id>
F12T

>  <abundance fitness>
-0.031

$$$$
>  <mutation-id>
S38W

>  <abundance fitness>
-0.358

$$$$
>  <mutation-id>
A4M

>  <abundance fitness>
0.004

$$$$
>  <mutation-id>
I33C

>  <abundance fitness>
-0.002

$$$$
>  <mutation-id>
A18F

>  <abundance fitness>
-1.07

$$$$
>  <mutation-id>
E20C

>  <abundance fitness>
-0.156

$$$$
>  <mutation-id>
L3I

>  <abundance fitness>
0.05

$$$$

Lab note: each variant below needs its abundance fitness filled in.
1. H9V
2. N37I
3. I28K
4. Q30S
5. Y5W
6. W50G
7. S38R

-0.043
-0.01
-0.633
-0.081
-0.143
-0.28
-0.096
